test-system: Prothrombin (Homo sapiens)
experiment: Thrombin 1536 HTS Dose Response Confirmation. [Related pubchem assays: 1046 (Thrombin 1536 HTS; hits were confirmed in this assay)]
Assay type: functional
The source made the active and inactive calls. Cut-off read from the data, not from the text of the source: actives have a measured IC50 and inactives only a lower limit.
measured-quantity: IC50

### Prompt I have this molecule here, `COc1ccc(N(C(=O)c2ccco2)S(=O)(=O)c2ccc(F)cc2)cc1` , and I need its recorded IC50.
### Response 17.5 µM (active)

### Prompt # input molecule: `C=CCN(C(=O)Nc1ccc2c(c1)nc(C)n2C)c1ccccc1` ; wanted: its IC50
### Response > 50 µM (not active)

### Prompt Reported IC50 for CCC(C)NCCOc1cc(C)cc(C)c1C (centres undefined) : what is it?
### Response > 50 µM (not active)

### Prompt Param item = `Cc1nn2c(NCCCN(C)C)c3c(nc2c1-c1ccccc1)CCC3` ; retrieve measured IC50.
### Response > 50 µM (not active)
